# half-life annotations
Assay: Chemical stability of the compound in phosphate buffer saline at pH 7.4 assessed as half life
Assay type: physicochemical
Details: phosphate buffer saline
Report the figure in h without appending any unit label.

Example results:
[in] So what's the measured half-life for this one? COC(=O)[C@@H](C)NP(=O)(OC[C@H]1OC(C)(C)O[C@H]1C(=O)NO)Oc1cccc(C)c1C (stereo partly drawn)
[out] 30

[in] Give its half-life value. Item: COC(=O)[C@@H](C)NP(=O)(OC[C@H]1OC(C)(C)O[C@H]1C(=O)NO)Oc1ccc([N+](=O)[O-])cc1 (stereo partly drawn)
[out] 0.85

Attention now turns to another entry.
[in] Form field: reported half-life of COC(=O)[C@@H](C)NP(=O)(OC[C@H]1OC(C)(C)O[C@H]1C(=O)NO)Oc1ccccc1 (stereo partly drawn)
[out] 5
